target: Acyl-protein thioesterase 2 (Homo sapiens) (UniProt O95372); assay: LYPLA2 inhibitors, primary screen, counter-screen for PME1 inhibitor project, biochemical, fluorescence polarization, FP-Rh probe ABPP (AID 2177); details: recombinant LYPLA2, FP-Rh probe fluorescence polarization; at 5.9 µM; stronger effect = higher value;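 also: 0% = LYPLA2 with DMSO and 100% = wells lacking LYPLA2 enzyme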
Sequence (O95372 whole entry, looked up): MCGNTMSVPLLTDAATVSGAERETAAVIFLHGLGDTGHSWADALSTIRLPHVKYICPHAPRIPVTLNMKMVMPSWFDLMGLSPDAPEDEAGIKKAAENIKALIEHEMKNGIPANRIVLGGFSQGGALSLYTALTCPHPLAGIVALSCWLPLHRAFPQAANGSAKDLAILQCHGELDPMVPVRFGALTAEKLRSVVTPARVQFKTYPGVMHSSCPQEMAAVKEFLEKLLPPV
About 1,200 (0.38%) of roughly 320,000 compounds were called active. Only a selection was taken, and actives are over-represented in it overall.
Quick reference for inhibition among some molecules
Give just the number in %; leave the unit off.

MOLECULE: O=C1/C(=C\c2ccccc2Cl)SC(=S)N1CCC(=O)N1CCCc2ccccc21
SYSTEM: Acyl-protein thioesterase 2 (Homo sapiens) (UniProt O95372)
inhibition (%): -1.32
//
MOLECULE: CCN(CC(=O)Nc1ccccc1OC)C(=O)CC1CC2CCC1C2 (stereo not given)
SYSTEM: Acyl-protein thioesterase 2 (Homo sapiens) (UniProt O95372)
inhibition (%): 4.24

Respond only with inhibition recorded for COc1ccc(C2(CNC(=O)C(c3ccccc3)c3ccccc3)CCOCC2)cc1OC 0.76

Respond only with inhibition recorded for O=C(CCCN1C(=O)c2cccc3cccc(c23)C1=O)N1CCN(Cc2ccc3c(c2)OCO3)CC1 64.2

Respond only with inhibition recorded for CCN(CC)C(=O)CC1(c2ccccc2OC)CCOC(C(C)C)C1 (stereo not given) 27.5

Respond only with inhibition recorded for O=C1C2C3C=CC(C3)C2C(=O)N1c1ccc(-c2nc3ccccc3c(=O)o2)cc1 (stereo not given) 1.58

Respond only with inhibition recorded for Cn1nc(C(F)(F)F)c(C(=O)Nc2cccc(C(F)(F)F)c2)c1SCc1ccc(Cl)cc1 -39.3

Respond only with inhibition recorded for O=C(Nc1ccc(N2CCN(C(=O)c3ccccc3)CC2)c(Cl)c1)c1ncn[nH]1 14.6

Respond only with inhibition recorded for Cc1ncc([N+](=O)[O-])n1CCOC(=O)c1ccc(Br)cc1 4.52

Respond only with inhibition recorded for COc1c(C)c2c(c(O)c1C/C=C(\C)CCC(=O)O)C(=O)OC2 1.01
